# credit: the nanobody polyreactivity screen of Harvey et al. (2022)

test.method.notes: yeast display, Sf9 membrane polyspecificity reagent, FACS + sequencing; frameworks hold sequencing errors
assay.readout: polyreactivity (PSR sort gate)

Previously resolved entries follow.
seq	polyreactivity (PSR sort gate)
QVQLVESGGGLVQAGGSLRLSCAASGITFSRNAMGWSRQARGKERELVAAISRGGSTNYADSVKGRFTISRDNAKNTVYLQMNSLKPEDTAVYYCNAPGYLSWRFYGVKRNYWGQGTQVTVSS	high polyreactivity
QVQLVESGGGLVQAGGSLRLSCAASGGTFAIYVKGWYRLAPGKERELVAAITRVGSTYADSVKGRFTISRDNAKNTVYLQMNSLKPEDTAVYYCAAVSGVRSGPWRYDYLGQGTQVTVSS	high polyreactivity
QLQLVESGGGLVQAGGSLRLSCAASGRTFFGYAMGWYSQAPGKERELVATIDGSDGSTFYADSGKGRFTISRDNAKNTVYLQMNSLKPEDTAVYYCAAENFWQTKEYDYWGQGTQVTVSS	low polyreactivity
QDQLVESGGGLVQAGGSLRLSFAASGSTFWYNDMGWYRQAPGKERELVASISWSGGDTYYADSVKGRFTISRDNAKNSVYLQMNSLKPEDTEVYYCAKGNNWISRLMDYWGQGTQVTVSS	low polyreactivity

Ask: Return reported polyreactivity (PSR sort gate); argument: `QVQLVESGGGLVQAGGSLRSSCAASGYTFRYYAMGWSRQAPGKERELVAAITSSSNTTYADSVKGRFTISRDNEKNTVYLQMNSLKPDDTGVYYCNTPYFTGYYWGQGTQVTVSS`
Reply: high polyreactivity

----------
test.method.notes: yeast display, Sf9 membrane polyspecificity reagent, FACS + sequencing; frameworks hold sequencing errors
assay.readout: polyreactivity (PSR sort gate)

seq	polyreactivity (PSR sort gate)
QVQLVESGGGLVQAGGSRRISCAASGIIFTLYVMGWYRQAPGTERELVAAIRSGGSTYYADSVKGRVTISRDNAKNTVYLQMNSLKPEDTAVYYCAARVRSGTGVGFDYWGQGTQVTVSS	high polyreactivity
QVQLVESGGGLVQAGGSLRLSCAASGFTFYYYAMGWYRQAPGKERELVAAINRSGGSTYYADSVKGRFTISRDNAKNTVYLQMNSLKPEDTAVYYCNKRLLVSRSSAQPYGYWGQGTQVTVSS	high polyreactivity
QVQLVESAGGLVQAGGSLRLRSAASGSTIWHNAMGWYRHAPGKERELVAGISGSGGSTYYADSVKGRFTISRDNAKNTVYLEMNSMKPDDTAVYYCATDGRSRVDGVRRGPYDYWGQGTHVTVSS	low polyreactivity
QVQLVESGGGLVQAGGSLRLSCAASGRTFSEYAMGWYRQAPGKERELVAAITRSGGGTYYADSVKGRFTISRDNAKNTVYLQMNSLKPEDTAVYYCATQSFSPYDYTDEYWGQGTQVTVSS	high polyreactivity

Now turn to the next sequence.
Ask: Return reported polyreactivity (PSR sort gate); argument: `QVQLVESGGGLVQAGGSLRLSCAASGSIFELNAMGWYRQAPGKERELVAAITSSGSSTYYADSVKGRFTISRDNAKNTVYLQMNSLKPEDTAVYYCFRPHDYWGQGTQVTVTS`
Reply: low polyreactivity

----------
test.method.notes: yeast display, Sf9 membrane polyspecificity reagent, FACS + sequencing; frameworks hold sequencing errors

seq	polyreactivity (PSR sort gate)
QVQLVESGGGLVQAGGSLRLSCAASGSIFSSYAMGWYRQAPGKDRELVAAITRSGGSTYYADSVKGRFTISRDNAKNTVYVQMNSLKPEDTAVYYCNARGKGHYYWGQGTQVTVSS	high polyreactivity
QFHLVESGRGLVQAGGSLRLSCAASGRIFCVNAMGWYRQAPGKERELVADISSGGSTNYADSVKGRFTISRDNAKNTVYLQMNSLKPEDTAFYYCNARFRFRYKFPSRNSWGQGTLVTVSS	high polyreactivity
